Tested on: senescent IMR90 ER:RAS cells (4-OHT-induced)
Assay: Nuclei count (Hoechst, high content imaging) senolytic assay, oncogene-induced senescence (OIS) model, senescent cells
Assay type: cell-based, human
Details: Homo sapiens, IMR-90, 72 h, Senescent, log (dose) [M] -7.66, 72 h, mean n=3 (Fig 3C); read-out: Mean % Cell Survival
Where a name gives a salt, the structure may show the parent alone.
Below, each of the compounds is paired with its reported viability at 0.02188 µM value.
measuredAttribute: viability at 0.02188 µM

- C[C@@H]1O[C@@H](O[C@H]2C[C@@H](O)[C@]3(CO)[C@H]4[C@H](O)C[C@]5(C)[C@@H](C6=CC(=O)OC6)CC[C@]5(O)[C@@H]4CC[C@]3(O)C2)[C@H](O)[C@H](O)[C@H]1O [Ouabain, ouabain, reference compound]: 73%
- O=c1c(O)c(-c2ccc(O)cc2)oc2c(O)c(O)cc(O)c12: 97.8%
- O=c1cc(-c2ccc(O)cc2)oc2cc(O)c(O)c(O)c12: 106%
- CO[C@H]1C[C@@H]2CC[C@@H](C)[C@@](O)(O2)C(=O)C(=O)N2CCCC[C@H]2C(=O)O[C@H]([C@H](C)C[C@@H]2CC[C@@H](OP(C)(C)=O)[C@H](OC)C2)CC(=O)[C@H](C)/C=C(\C)[C@@H](O)[C@@H](OC)C(=O)[C@H](C)C[C@H](C)/C=C/C=C/C=C/1C [Ridaforolimus, ridaforolimus, reference compound]: 131%
- COC[C@H]1C[C@@H](c2nc(-c3ccc4c(c3)COc3cc5c(ccc6nc([C@@H]7CC[C@H](C)N7C(=O)[C@@H](NC(=O)OC)C(C)C)[nH]c65)cc3-4)c[nH]2)N(C(=O)[C@H](NC(=O)OC)c2ccccc2)C1 [Velpatasvir, velpatasvir, reference compound]: 108%
- CO[C@H]1C[C@@H]2CC[C@@H](C)[C@@](O)(O2)C(=O)C(=O)N2CCCC[C@H]2C(=O)O[C@H]([C@H](C)C[C@@H]2CC[C@H](n3cnnn3)[C@H](OC)C2)CC(=O)[C@H](C)/C=C(\C)[C@@H](O)[C@@H](OC)C(=O)[C@H](C)C[C@H](C)/C=C/C=C/C=C/1C [Zotarolimus, zotarolimus, reference compound]: 116%
- CO[C@H]1C[C@@H]2CC[C@@H](C)[C@@](O)(O2)C(=O)C(=O)N2CCCC[C@H]2C(=O)O[C@H]([C@H](C)C[C@@H]2CC[C@@H](OCCO)[C@H](OC)C2)CC(=O)[C@H](C)/C=C(\C)[C@@H](O)[C@@H](OC)C(=O)[C@H](C)C[C@H](C)/C=C/C=C/C=C/1C [Everolimus, everolimus, reference compound]: 90.5%
- CC[C@]1(O)C[C@@H]2CN(CCc3c([nH]c4ccccc34)[C@@](C(=O)OC)(c3cc4c(cc3OC)N(C)[C@H]3[C@@](O)(C(=O)OC)[C@H](OC(C)=O)[C@]5(CC)C=CCN6CC[C@]43[C@@H]65)C2)C1 [Vinblastine sulfate, vinblastine sulfate, reference compound]: 59.7%

###

Tested on: non-senescent control IMR90 ER:RAS cells
Experiment: Nuclei count (Hoechst, high content imaging) senolytic assay, OIS model, non-senescent control cells
Assay type: cell-based, human
Details: Homo sapiens, IMR-90, 72 h, Control, log (dose) [M] -8, 72 h, mean n=3 (Fig 3C); read-out: Mean % Cell Survival
Counter-ions that a name gives are not always drawn.
Below, each of the molecules is paired with its reported viability at 0.01 µM value.
measuredAttribute: viability at 0.01 µM (%)

* C[C@@H]1O[C@@H](O[C@H]2C[C@@H](O)[C@]3(CO)[C@H]4[C@H](O)C[C@]5(C)[C@@H](C6=CC(=O)OC6)CC[C@]5(O)[C@@H]4CC[C@]3(O)C2)[C@H](O)[C@H](O)[C@H]1O [Ouabain, ouabain, reference compound] | 88.3
* COc1cc(/C=C/C(=O)O[C@H]2CC[C@]34C[C@]35CC[C@]3(C)[C@@H]([C@H](C)CCC=C(C)C)CC[C@@]3(C)[C@@H]5CC[C@H]4C2(C)C)ccc1O [Gamma oryzanol, gamma oryzanol] | 115
* CC[C@]1(O)C[C@@H]2CN(CCc3c([nH]c4ccccc34)[C@@](C(=O)OC)(c3cc4c(cc3OC)N(C)[C@H]3[C@@](O)(C(=O)OC)[C@H](OC(C)=O)[C@]5(CC)C=CCN6CC[C@]43[C@@H]65)C2)C1 [Vinblastine sulfate, vinblastine sulfate, reference compound] | 105

###

Tested on: non-senescent control IMR90 ER:RAS cells
Assay: Nuclei count (Hoechst, high content imaging) senolytic assay, OIS model, non-senescent control cells
Type: cell-based, human
Conditions: Homo sapiens, IMR-90, 72 h, Control, log (dose) [M] -6.33, 72 h, mean n=3 (Fig 3C); read-out: Mean % Cell Survival
Below, each of the compounds is paired with its reported viability at 0.4677 µM value.
measuredAttribute: viability at 0.4677 µM (%)

* COc1cc(/C=C/C(=O)O[C@H]2CC[C@]34C[C@]35CC[C@]3(C)[C@@H]([C@H](C)CCC=C(C)C)CC[C@@]3(C)[C@@H]5CC[C@H]4C2(C)C)ccc1O [Gamma oryzanol, gamma oryzanol] | 98.4
* CO[C@H]1C[C@H](O[C@H]2CC[C@@]3(C)[C@H](CC[C@@H]4[C@@H]3CC[C@]3(C)[C@@H](C5=CC(=O)OC5)[C@@H](OC(C)=O)C[C@]43O)C2)O[C@@H](C)[C@@H]1O [Oleandrin, oleandrin] | 24.8
* CO[C@H]1C[C@@H]2CC[C@@H](C)[C@@](O)(O2)C(=O)C(=O)N2CCCC[C@H]2C(=O)O[C@H]([C@H](C)C[C@@H]2CC[C@@H](OP(C)(C)=O)[C@H](OC)C2)CC(=O)[C@H](C)/C=C(\C)[C@@H](O)[C@@H](OC)C(=O)[C@H](C)C[C@H](C)/C=C/C=C/C=C/1C [Ridaforolimus, ridaforolimus, reference compound] | 87.6
* CO[C@H]1C[C@@H]2CC[C@@H](C)[C@@](O)(O2)C(=O)C(=O)N2CCCC[C@H]2C(=O)O[C@H]([C@H](C)C[C@@H]2CC[C@H](n3cnnn3)[C@H](OC)C2)CC(=O)[C@H](C)/C=C(\C)[C@@H](O)[C@@H](OC)C(=O)[C@H](C)C[C@H](C)/C=C/C=C/C=C/1C [Zotarolimus, zotarolimus, reference compound] | 108
* Cc1cnc(C(=O)N[C@H]2CCCCC/C=C\[C@@H]3C[C@@]3(C(=O)NS(=O)(=O)C3CC3)NC(=O)[C@@H]3C[C@@H](Oc4nc5ccccc5c5ccccc45)CN3C2=O)cn1 [Paritaprevir, paritaprevir, reference compound] | 87.9
* O=c1cc(-c2ccc(O)cc2)oc2cc(O)c(O)c(O)c12 [Scutellarein, scutellarein] | 95.4
* O=c1c(O)c(-c2ccc(O)cc2O)oc2cc(O)cc(O)c12 [Morin, morin] | 91.6
* O=c1oc2c(O)c(O)cc3c(=O)oc4c(O)c(O)cc1c4c23 [Ellagic acid, ellagic acid] | 109
* O=c1c(O)c(-c2ccc(O)cc2)oc2c(O)c(O)cc(O)c12 [Herbacetin, herbacetin] | 94.9

###

Tested on: senescent A549 cells (etoposide-induced)
Experiment: Nuclei count senolytic assay, therapy-induced senescence (TIS) model, senescent cells
Type: cell-based, human
Details: Homo sapiens, A549; log (dose) [M] -6.33; Senescent cells; mean; read-out: Mean % Cell Survival
Below, each of the molecules is paired with its reported viability at 0.468 µM value.
measuredAttribute: viability at 0.468 µM (%)

* COc1cc(/C=C/C(=O)O[C@H]2CC[C@]34C[C@]35CC[C@]3(C)[C@@H]([C@H](C)CCC=C(C)C)CC[C@@]3(C)[C@@H]5CC[C@H]4C2(C)C)ccc1O [Gamma oryzanol, gamma oryzanol] | 107
* CC1(C)CCC(c2ccc(Cl)cc2)=C(CN2CCN(c3ccc(C(=O)NS(=O)(=O)c4ccc(N[C@H](CCN5CCOCC5)CSc5ccccc5)c(S(=O)(=O)C(F)(F)F)c4)cc3)CC2)C1 [navitoclax, reference compound] | 43.7

###

Below, each of the compounds is paired with its reported viability at 0.0219 µM value.
Test system: non-senescent control A549 cells
Experiment: Nuclei count senolytic assay, TIS model, non-senescent control cells
Format: cell-based, human
Conditions: Homo sapiens, A549; log (dose) [M] -7.66; Control cells; mean; read-out: Mean % Cell Survival
measuredAttribute: viability at 0.0219 µM (%)

• CO[C@H]1C[C@@H]2CC[C@@H](C)[C@@](O)(O2)C(=O)C(=O)N2CCCC[C@H]2C(=O)O[C@H]([C@H](C)C[C@@H]2CC[C@@H](O)[C@H](OC)C2)CC(=O)[C@H](C)/C=C(\C)[C@@H](O)[C@@H](OC)C(=O)[C@H](C)C[C@H](C)/C=C/C=C/C=C/1C [Rapamycin, rapamycin, reference compound] = 117
• Cc1c(-c2c(F)cc(C(N)=O)c3[nH]c4c(c23)CC[C@H](C(C)(C)O)C4)cccc1-n1c(=O)c2cccc(F)c2n(C)c1=O = 103
• COc1cc(/C=C/C(=O)O[C@H]2CC[C@]34C[C@]35CC[C@]3(C)[C@@H]([C@H](C)CCC=C(C)C)CC[C@@]3(C)[C@@H]5CC[C@H]4C2(C)C)ccc1O = 106

Where do these numbers come from? They come from paper PMC10257182.
